So I've got a bunch of compounds here, and I need their growth values.
- System: KM12 colon
- measurement_notes: NCI-60 one-dose screen, 48 h (100 = growth as untreated, 0 = no growth, -100 = all killed)
- experimental_parameters: 10 µM
The panel holds about 83,000 compounds, 20% with a hit somewhere; the sample as a whole holds those more often.
Give bare numbers, in %.

[
  {
    "compound": "C=CC[N+](C)(C)C",
    "target_of_assay": "KM12 colon",
    "growth [%]": 114
  },
  {
    "compound": "O=C(O)c1cccc([N+](=O)[O-])c1",
    "target_of_assay": "KM12 colon",
    "growth [%]": 105
  },
  {
    "compound": "COC(=O)c1cccnc1",
    "target_of_assay": "KM12 colon",
    "growth [%]": 112
  }
]

Give measured growth for every item shown.
1. C=CCNc1ccccc1
2. CC(=O)c1ccc2c(ccc3ccccc32)c1
3. C/C(=C\c1cc(Cl)ccc1OCC(=O)O)[N+](=O)[O-]
4. CCCCC(CC)COC(C)=O (stereo not drawn)
5. CCCNc1ccc(C2=NCCCN2)cc1

1. 109
2. 106
3. 105
4. 101
5. 94.5

----------
- Test system: SK-MEL-5 melanoma
- measurement_notes: NCI-60 one-dose screen, 48 h (100 = growth as untreated, 0 = no growth, -100 = all killed)
- experimental_parameters: 10 µM
About 83,000 compounds went through this panel and 20% of them were active in at least one assay; those are over-represented in the sample as a whole. Active and inactive are the calls of the source. Rule for the calls: active = growth percent below 10; inactive = the rest.
So I've got a bunch of compounds here, and I need their growth values.

[
  {
    "compound": "CS(=O)CC1=NC(=N)N=C1CS(C)=O (centres undefined)",
    "target_of_assay": "SK-MEL-5 melanoma",
    "value": "99.3% (inactive)"
  },
  {
    "compound": "CSC[C@H](NC(=O)COc1cccc2cnccc12)C(=O)NC(Cc1ccccc1)C(O)C(=O)N1CSC[C@H]1C(=O)NC(C)(C)C (some centres undefined)",
    "target_of_assay": "SK-MEL-5 melanoma",
    "value": "102% (inactive)"
  },
  {
    "compound": "CNc1nc(NC)c2cn[nH]c2n1",
    "target_of_assay": "SK-MEL-5 melanoma",
    "value": "97.8% (inactive)"
  },
  {
    "compound": "CCCCCCCCCCC1CO1 (centres undefined)",
    "target_of_assay": "SK-MEL-5 melanoma",
    "value": "100% (inactive)"
  },
  {
    "compound": "Cc1ccc(C)n1-c1ccsc1C(=O)NNC(=O)C(Cl)Cl",
    "target_of_assay": "SK-MEL-5 melanoma",
    "value": "94.8% (inactive)"
  },
  {
    "compound": "CC(C)OC(C(=O)O)c1ccccc1 (centres undefined)",
    "target_of_assay": "SK-MEL-5 melanoma",
    "value": "105% (inactive)"
  },
  {
    "compound": "CC(C)=CC(=O)OC(=O)C=C(C)C",
    "target_of_assay": "SK-MEL-5 melanoma",
    "value": "98.8% (inactive)"
  },
  {
    "compound": "CC(C)COC(=O)COC(=O)OCCOCCOC(=O)OCC(=O)OCC(C)C",
    "target_of_assay": "SK-MEL-5 melanoma",
    "value": "101% (inactive)"
  }
]

Give measured growth for every item shown.
1. Cc1cc(N)c(S(=O)(=O)O)c(N)c1
2. c1ccc(Cc2ccccc2)cc1
3. O=C1c2ccccc2C(=O)c2c1ccc(C(=O)O)c2[N+](=O)[O-]
4. COc1cc(CN)ccc1O
5. CN(C)C(=O)Oc1cccc([N+](C)(C)C)c1
6. COc1ccc(/C=C/c2cccc[n+]2C)cc1

["104% (inactive)", "116% (inactive)", "109% (inactive)", "102% (inactive)", "94.9% (inactive)", "105% (inactive)"]

Hey, just so you know, these numbers are from PubChem BioAssay (NCI).
